target: SpBzz1-D2; assay: SPOT peptide array binding signal intensity (averaged, normalized) (arbitrary units (background-subtracted, floor 0; scale differs between SH3 domains)); higher = stronger binding of the SH3 domain to the peptide
experimental endpoint: SPOT peptide array binding signal intensity

{"binder": "APPPPPRRATPEKKP", "relational operator": "=", "reading": 1.25}
{"binder": "PPPPPPPPPPLPQSL", "relational operator": "=", "reading": 41}
{"binder": "NPTKSPPPPPSPSTM", "relational operator": "=", "reading": 7.25}
{"binder": "QPWTDQFEKLEKEVS", "relational operator": "≤", "reading": 0}
{"binder": "SKIRPTPRKPSRMAT", "relational operator": "=", "reading": 1.5}
{"binder": "DRIRMFIRFPKFLLE", "relational operator": "=", "reading": 5.5}
{"binder": "VNIPSPSSSPPPIPK", "relational operator": "≤", "reading": 0}
{"binder": "RPVPRRPSQPLNTLS", "relational operator": "=", "reading": 1.5}
{"binder": "KWVRRPKLMTPLTFS", "relational operator": "=", "reading": 0.5}
